tested on: MS2 coat protein; assay: apparent KD of MS2 coat protein; designed switch direction (-1 OFF switch, 1 ON switch): 1; higher = weaker reporter binding; conditions: input ligand: FMN 200 uM
measured-quantity: apparent KD of MS2 coat protein (nM)
Form entry: value (nM) — number only.

Solved entries:
CGACACACGGCAGGAUAUGCUUAGCAAAGCUAAGCAGAAGGGCCUCAUGUCGUGGAAACGUGACAUGAGGAUCACCCAUGUCGC [Omei SS(NG)1 C] (Eterna round: R96, puzzle: Same State NG 1) ... 31
AAGAUACAUGAGGAUCACCCAUGUCGAGAGAGACGAGGAUAUCUGAAUCGAUUAGAUUACGGAGAAGGCGUGAAAA [LROPPY Same State 1 - v07_deltaG=1.9] (Eterna round: R96, puzzle: Same State 1) ... 19.6
AAAAGAACCACAGGAUAUACACUCCUAGCGGCGGUAGAAGGGUGGAACAUGAGGAUCACCCAUGUACGUCUGGAAUCAGACUAA [Radianis] (Eterna round: R96, puzzle: Same State NG 1) ... 267
GUUACAUGAGGAUCACCCAUGUAUGUGUGGGAGUAAGUGUCUUAGGAUAUCUAUGAUUUAAUCUAAGAGAAGGAAGAUUGUUGU [JMF's solution 82] (Eterna round: R96, puzzle: Same State NG 3) ... 114
UUCUCCUUUUUUUACAUGAGGAUCACCCAUGUUUUUCUUACGUAGGAUAUCGUUGAGUGUUUGUACGAGAAGGACGUAGUAAGU [JR_SSND3_Sub059] (Eterna round: R96, puzzle: Same State NG 3) ... 37.9

Fill in: apparent KD of MS2 coat protein of GCUACCAUUGAAGCCUACAUGAGGAUCACCCAUGUAUGUAGGCAGGAUAUCGAUUGCUUUGCGAUCGAGAAGGGCUUAGGUAGC [JL SSNG3 1.30] (Eterna round: R96, puzzle: Same State NG 3) is ___
21.6

I am curious: what apparent KD of MS2 coat protein value has been reported for AGCCGAGACACAGGAUAUAGAUGUUUACAUGAGGAUCACCCAUGUAGCAACACGUGGUAGUGAUUCUAGAAGGGUGCUCGGCGC [Omei SS(NG)2 Cv11] (Eterna round: R96, puzzle: Same State NG 2) ?
36.3

Recorded apparent KD of MS2 coat protein for UAAAGAUAGCGAGGAUAUCGCGAGGAUCACCCGUGAGAAGGCGCAGAGCCGAGGAUCACCCGGCUGAUCCUGAGGAGGAGGUCA (Eterna round: R96, puzzle: Same State NG 1) , please?
108

// query apparent KD of MS2 coat protein value for entry CUUCGGAAGCGAGGAUAUGCAGAGGAUCACCCUGCAGAAGGCGCAAAAGCGAGGAUAUGCAGAGGAUCACCCUGCAGAAGGCGC [pwkr ssNG DX.34] (Eterna round: R96, puzzle: Same State NG 1)
43

###

Reported apparent KD of MS2 coat protein values for a set of sequences
system: MS2 coat protein; assay: apparent KD of MS2 coat protein; designed switch direction (-1 OFF switch, 1 ON switch): -1; higher = weaker reporter binding; details: input ligand: none
Give just the numeric value; nM need not be written.

# example entries with known answers
GAUGUUCGAGUUAGGAUAUGAAUCCAUACCGGACAUCAGAAGGAACUUGAGGAUCACCCAAGUGGGAAAGAAAU [Orzavera] (Eterna round: R97, puzzle: Brourd's mod of Exclusion 4) ... 23.5
CUGAGUUGAGGAUAUACAUGAGGAUCACCCAUGUAAAGUAGCUUGCGUACAGGCAGAUGUAGAAGGCAAUUCGG [Mod of JL 3 - Jieux - Exclusion 3] (Eterna round: R97, puzzle: Exclusion 3) ... 24.5
GCUUUUGGGCAAGGAUAUCCUGCGCUGUUCUGGUUCGUGUCUGUCACAUGAGGAUCACCCAUGUGGGAGAAGGUGCCUGUGGUG [Design 70] (Eterna round: R96, puzzle: Exclusion NG 2) ... 19.2

Please provide the recorded apparent KD of MS2 coat protein for ACAAGCUAAAUCAUAUCUUACAUGAGGAUCACCCAUGUUUUUGCAAUUAUGUUUGGGCUCUUUUGUGCUCGUCUUAU [JR_STOV1_Sub050] (Eterna round: R97, puzzle: Sensor, turn-off variant 1) , tested on MS2 coat protein.
17.6

Give recorded apparent KD of MS2 coat protein with MS2 coat protein for the following sequence: UGAGUGCUGCGAGGAUAUACAUGAGGAUCACCCAUGUUUUCGUGUGAGGCUUUGCCUCACACGAUGUAGAAGGCGCAGUACUCU [JL ENG2 1.13] (Eterna round: R96, puzzle: Exclusion NG 2)
12.8
